- SETTINGS: in 2-propoxyethanol, 323.15 K
MEASURED_METRIC: solubility (mole fraction)
Number only, please.

Q: Query: solubility (mole fraction); subject: `CC(=O)N1CCN(c2ccc(O)cc2)CC1`
Result: 0.015

----------
- SETTINGS: in n-butanol, 298.15 K
MEASURED_METRIC: solubility (mole fraction)
In your answer, state the number alone without any accompanying words.

Q: Look up solubility (mole fraction): `CC(=O)N1CCN(c2ccc(O)cc2)CC1`
Result: 0.00232

----------
- SETTINGS: in n-propanol, 283.15 K
MEASURED_METRIC: solubility (mole fraction)
Simply state the number, no unit and no words.

Q: Please look up its solubility (mole fraction): `CC(=O)N1CCN(c2ccc(O)cc2)CC1`
Result: 0.00179

----------
- SETTINGS: in isobutanol, 288.15 K
MEASURED_METRIC: solubility (mole fraction)
Could you keep your reply to the number by itself?

Q: Find the recorded solubility (mole fraction) belonging to `CC(=O)N1CCN(c2ccc(O)cc2)CC1` and report it.
Result: 0.00141

----------
- SETTINGS: in isobutanol, 313.15 K
MEASURED_METRIC: solubility (mole fraction)
Just the number, please, no unit attached.

Q: Bench note: what solubility (mole fraction) did `CC(=O)N1CCN(c2ccc(O)cc2)CC1` show?
Result: 0.00353

----------
- SETTINGS: in acetonitrile, 298.15 K
MEASURED_METRIC: solubility (mole fraction)

Q: What value of solubility (mole fraction) has been recorded for this entry: `CC(=O)N1CCN(c2ccc(O)cc2)CC1`
Result: 0.00181

----------
- SETTINGS: in 2-methoxyethanol, 308.15 K
MEASURED_METRIC: solubility (mole fraction)
Returns: the value as a bare number; no unit string appended.

Q: What value of solubility (mole fraction) has been recorded for this entry: `CC(=O)N1CCN(c2ccc(O)cc2)CC1`
Result: 0.0153

----------
- SETTINGS: in ethanol, 293.15 K
MEASURED_METRIC: solubility (mole fraction)
The answer should be written as a number, with no unit following it.

Q: Recorded solubility (mole fraction) for `CC(=O)N1CCN(c2ccc(O)cc2)CC1` , please?
Result: 0.00328

----------
- SETTINGS: in methanol, 318.15 K
MEASURED_METRIC: solubility (mole fraction)

Q: Fill in: solubility (mole fraction) of `CC(=O)N1CCN(c2ccc(O)cc2)CC1` is ___
Result: 0.00952

----------
- SETTINGS: in isobutanol, 298.15 K
MEASURED_METRIC: solubility (mole fraction)
Write no unit; give the number alone.

Q: GET /values?readout=solubility (mole fraction)&item= `CC(=O)N1CCN(c2ccc(O)cc2)CC1`
Result: 0.00214

----------
- SETTINGS: in 2-ethoxyethanol, 308.15 K
MEASURED_METRIC: solubility (mole fraction)

Q: // solubility (mole fraction) lookup, key: `CC(=O)N1CCN(c2ccc(O)cc2)CC1`
Result: 0.0112

----------
- SETTINGS: in isopropanol, 293.15 K
MEASURED_METRIC: solubility (mole fraction)
The response must contain the number and no unit.

Q: // query solubility (mole fraction) value for entry `CC(=O)N1CCN(c2ccc(O)cc2)CC1`
Result: 0.00204

----------
- SETTINGS: in ethanol, 298.15 K
MEASURED_METRIC: solubility (mole fraction)
Quick one: just the number, no unit, thanks!

Q: # get_value(readout='solubility (mole fraction)', item= `CC(=O)N1CCN(c2ccc(O)cc2)CC1` )
Result: 0.00396

The reported measurements were obtained from BigSolDB 2.1.
